Data credit: PubChem BioAssay (NCI)

Answer each item with its documented TGI.
system: HCT-15 colon; experiment: NCI tumour cell line growth inhibition, 48 h

Examples with their reported TGI follow.
CCCCNC(=O)OCCN=C1c2ccccc2C(Br)C(Br)c2ccccc21 (configuration not stated) | 38.2 µM
O=C(NCCn1ccnn1)Nc1ccccc1 | > 100 µM
CCOC(=O)C1C(c2ccc3c(c2)OCO3)c2c([nH][nH]c2=O)CC1(O)OCC (configuration not stated) | > 100 µM
COC(=O)C(C)NP(=O)(OCc1ccc(Cn2cnc3c(N)ncnc32)cc1)Oc1ccccc1 (configuration not stated) | > 100 µM
CN(C)CCNC(=O)C1COc2cc(-c3cc(=O)c4ccccc4o3)ccc2O1 (configuration not stated) | > 100 µM

Hey, quick one: what's TGI for each of these?
1. COc1ccc2c(c1OC)OC[C@@H](C1=CC(=O)C=C(O)C1=O)C2
2. CN1CCC(CN2c3ccccc3Sc3ccccc32)C1 (configuration not stated)
3. O=S(=O)(Nc1nc2ccccc2n1S(=O)(=O)c1ccccc1)c1ccccc1
4. NS(=O)(=O)c1ccc(N=Nc2c(O)[nH]c3ccc(Cl)cc23)cc1
5. CCOc1ccccc1C(=O)/C=C/c1cc2ccccc2[nH]c1=O
6. CO/C(=N\N=C\c1ccccc1F)c1ccncc1

Result:
1: 31 µM; 2: 31.4 µM; 3: > 100 µM; 4: > 25 µM; 5: 1.22 µM; 6: > 10 µM

Please look at the items below and tell me TGI for each one, in order.
1. Fc1ccc(-c2ncn(C3CCNCC3)c2-c2ccnc(Oc3cccc(C(F)(F)F)c3)n2)cc1
2. CCOC(=O)c1ccc(C(=O)/C(C#N)=C2\CCCN2)n1C
3. Cc1ccc(C(=O)N/N=C(\N=Nc2cccc(C)c2)c2ccc(N(CCC#N)CCC#N)cc2C)cc1
4. CC(C)C(NCc1c2ccccc2[n+]([O-])c2ccccc12)C(=O)O (configuration not stated)
5. CC1(c2ccc(Cl)cc2)NC(=NCCO)c2ccccc21 (configuration not stated)
6. O=C(O)C(CO)N=Cc1nc(-c2ccccc2)oc1O (configuration not stated)
7. CC[O-].CC[O-].CN(C)c1ccc([O-])cc1.CN(C)c1ccc([O-])cc1.[Ti+4]

Result:
7.25 µM
> 100 µM
> 100 µM
> 100 µM
> 100 µM
> 100 µM
> 100 µM

List reported TGI for each of these compounds:
1. COc1cc(C(=O)O[C@H]2CCC3CCC2N3C)cc(OC)c1OC (some centres not stated)
2. O=C1c2ccccc2CC12CCC1(CC2)OCCO1
3. COc1ccc(C(O)c2cc3c(N)c(C(=O)Nc4ccccc4)sc3nc2C)cc1 (configuration not stated)
4. CCC1c2[nH]c3ccccc3c2C[C@H]2C(=O)NC(Cc3c[nH]c4ccccc34)C(=O)N12 (some centres not stated)

Result:
1. > 100 µM
2. > 100 µM
3. > 100 µM
4. 78.2 µM

###

system: CAKI-1 renal; assay: NCI tumour cell line growth inhibition, 48 h; in the data active = GI50 below about 0.43 µM; inactive = the rest
Lab note: assign the record to one of active, inactive

COc1ccc(/C=C/C(=O)Nc2cc(/C=C\c3cc(OC)c(OC)c(OC)c3)cc(OC)c2OC)cc1OC | inactive
COc1cc2c(cc1OCCCCCN1CCN(CCCCCOc3cc4c(cc3OC)C(=O)C3CCC[C@H]3C=N4)CC1)N=C[C@@H]1CCCC1C2=O (some centres undefined) | inactive
C#CC#CC#CC#CC#CC#CC#CC#CC[C@@H]1OC[C@H](COC(=O)O[C@@H](C(=O)O[C@H]2C[C@@]3(O)[C@@H](OC(=O)c4ccccc4)[C@@H]4[C@]5(OC(C)=O)CO[C@@H]5C[C@H](O)[C@@]4(C)C(=O)[C@H](OC(C)=O)C(=C2C)C3(C)C)[C@@H](NC(=O)c2ccccc2)c2ccccc2)O1 | inactive

Ask: Answer briefly: the call reported for CCOc1ccccc1C(=O)/C=C/c1cc2ccccc2[nH]c1=O in this assay.
Result: active

Ask: What is the recorded call for this compound in the test? Cn1cc(-c2csc(-c3c[nH]c4ccccc34)n2)c2cccnc21
Result: active

Ask: # lookup: test call for CCNC(=O)N1CCc2c(Cl)c3c(c(OC)c2[C@@H]1[C@H]1OCc2c1ccc(OC)c2OC)OCCO3
Result: inactive

Ask: Status in this test for O=Cc1cn(Cc2ccccc2)c2ccccc12 ?
Result: active

Ask: Please let me know the test result on file for COc1cc2nccc(Oc3ccc(NC(=O)C4(C(=O)Nc5ccc(F)cc5)CC4)cc3)c2cc1OC(=O)c1ccc(N)cc1 .
Result: inactive

Ask: Record lookup: outcome of this test for COc1ccc(CCc2nc3cc(-c4c(C)noc4C)ccc3n2CCN2CCOCC2)cc1 ?
Result: inactive

###

test system: M14 melanoma; experiment: NCI tumour cell line growth inhibition, 48 h
Where a SMILES comes first, the peptide text is derived from it.
valueKind: GI50

Below, each entry is followed by its recorded GI50 result.
O=C1NC(=NCc2c(Cl)cccc2Cl)S/C1=C\c1ccc2ncccc2c1 | > 23.3 µM
CCNC(=O)N1CCc2c(Cl)c3c(c(OC)c2[C@@H]1[C@H]1OCc2c1ccc(OC)c2OC)OCCO3 | 2.12 µM
NS(=O)(=O)c1ccc(N=Nc2c(O)[nH]c3ccc(Cl)cc23)cc1 | > 25 µM

Take each entry in turn and give its GI50.
1. CCCCCCCC/C(=C\C1=C(C)C(=O)C(OC)=C(OC)C1=O)C(=O)O
2. COC(=O)c1ccc(C2SC(C)C(=O)N2NC(=O)C(O)c2ccccc2)cc1 (centres undefined)

Result:
1. > 100 µM
2. > 100 µM

Below are 4 compounds. Give each one its GI50.
1. CCC(C)C1NC(=O)C(CCCCN)NC(=O)C(CCCCN)NC(=O)C(CC(C)C)NC(=O)C(CCCCN)NC(=O)C(C(C)CC)NC(=O)C(C(C)C)NC(=O)C(C(C)CC)NC(=O)C(CCCCN)NC(=O)C(CCCCN)NC(=O)C(C)NC(=O)C(CCCCN)NC(=O)C(CC(C)C)NC1=O (centres undefined) (cyclo(AKKIVIKLKKILK); configuration not given here)
2. O=S(=O)(Nc1ccc2ccccc2c1)N1CCCCC1
3. O=C1C=CC2(NN=C(c3ccccc3)N2c2ccccc2)c2cccc(O)c21 (centres undefined)
4. COC(=O)C(C)NP(=O)(OCc1ccc(Cn2cnc3c(N)ncnc32)cc1)Oc1ccccc1 (centres undefined)

Result:
1. 1.6 µM
2. 8.94 µM
3. 1.3 µM
4. 55.4 µM

###

system: HL-60(TB) leukemia; experiment: NCI tumour cell line growth inhibition, 48 h; in the data active = GI50 below about 0.43 µM; inactive = the rest
Write down the outcome that applies. Available outcomes: TRUE = active, FALSE = inactive

Example cases with answers are listed next.
CC(C)(C(=O)NCC(F)(F)C(F)(F)F)C(=O)N[C@@H]1C(=O)Nc2ccccc2-c2ccccc21 | FALSE
O=S(=O)(Nc1ccc2ccccc2c1)N1CCCCC1 | FALSE
C#CCNCCCN1C(=O)c2ccc3c4c(ccc(c24)C1=O)C(=O)N(CCCNCC#C)C3=O | TRUE
CCC(C)CN=C(N)c1ccc(N2CCN(c3ccc(C(N)=NCC(C)CC)cc3)CC2)cc1 (configuration not stated) | FALSE
O=C1c2ccccc2S(=O)(=O)N1CSC(=S)N1CCOCC1 | FALSE
COc1cc(-c2cc(-c3nc4ccc(F)cc4[nH]3)[nH]n2)cc(OC)c1OC | FALSE
CCCCCCCCn1ccc2cc(NC(=O)Cn3cc(CN4CCN(CC)CC4)nn3)ccc21 | FALSE
COc1ccc(C(O)c2cc3c(N)c(C(=O)Nc4ccccc4)sc3nc2C)cc1 (configuration not stated) | TRUE
COC(=O)C(C)NP(=O)(OCc1ccc(Cn2cnc3c(N)ncnc32)cc1)Oc1ccccc1 (configuration not stated) | FALSE
CCCCCCC(O)(c1ccc(F)cc1)C(CN1CCOCC1)c1ccccc1 (configuration not stated) | FALSE

Ask: What outcome does the record of this test show for O=S(=O)(Nc1cc(F)cc(F)c1)c1ccc(-c2cnc(C3CC3)o2)cc1 ?
Result: FALSE

Ask: // outcome(item) with item = CCCCCC[n+]1noc(N)c1-c1ccc(-c2c(N)on[n+]2CCCCCC)cc1
Result: FALSE

###

test system: NCI-H522 lung; assay: NCI tumour cell line growth inhibition, 48 h; in the data active = GI50 below about 0.43 µM; inactive = the rest
Field 'call' accepts 1 (yes) for active, 0 (no) for inactive

Ask: Fill in: this test's call for CCCCCCCCn1ccc2cc(NC(=O)Cn3cc(CN4CCN(CC)CC4)nn3)ccc21 is ___
Result: 0 (no)

Ask: Hey, what did the test say about O=C1C=CC2(NN=C(c3ccccc3)N2c2ccccc2)c2cccc(O)c21 (stereo unspecified) ?
Result: 0 (no)

Ask: Kindly provide the recorded test outcome for the following compound: Cn1cc(-c2csc(-c3c[nH]c4ccccc34)n2)c2cccnc21
Result: 1 (yes)

###

tested on: HT29 colon; assay: NCI tumour cell line growth inhibition, 48 h
valueKind: TGI

Recorded results for 5 molecules are shown here.
CC(C)(C(=O)NCC(F)(F)C(F)(F)F)C(=O)N[C@@H]1C(=O)Nc2ccccc2-c2ccccc21 | > 100 µM
CCOC(=O)c1ccc(O)cc1 | > 100 µM
CCCCCCCCCCCCC(CC)CCCCC(=O)O (stereo unspecified) | > 100 µM
N#Cc1c(=N)cc2c3ccccc3oc3c(C#N)c(N)[nH]c1c32 | > 100 µM
CN(C)CCNC(=O)C1COc2cc(-c3cc(=O)c4ccccc4o3)ccc2O1 (stereo unspecified) | 34.6 µM

Please state TGI for every molecule in the list that follows.
1. O=C1c2ccccc2S(=O)(=O)N1CSC(=S)N1CCOCC1
2. CC(C)NCCCNc1c2ccccc2nc2cccc([N+](=O)[O-])c12
3. [N-]=[N+]=Nc1cccc(-c2n[nH]c(Cl)cc2=O)c1

Result:
["> 100 µM", "0.0216 µM", "> 100 µM"]

Lab note: each molecule below needs its TGI filled in.
1. Fc1ccc(-c2ncn(C3CCNCC3)c2-c2ccnc(Oc3cccc(C(F)(F)F)c3)n2)cc1
2. Oc1ccc2c(c1)OCC1(O)Cc3cc(O)c(O)cc3C21 (stereo unspecified)
3. CC1CC(c2ccccc2)Nc2nc3ccccc3n21 (stereo unspecified)

Result:
1: 5.54 µM; 2: 46.5 µM; 3: > 100 µM
